# assay_comment: PSAC antagonists in infected red cells, primary screen, cell-based, P. falciparum Indochina, OD700, 1 h (AID 1154)
# stated_conditions: P. falciparum Indochina infected RBC osmotic lysis, higher = more signal, called active from +8 up or from −8 down
Activity calls are given as the source filed them.
parameter: z-score

// worked examples, z-score included
# molecule, z-score
measured = [
    ("COC(=O)[C@]1(CCS(=O)(=O)c2ccccc2)N=C(c2ccc(OCCCO)cc2)O[C@@H]1c1ccccc1CN=[N+]=[N-]", "30.4 (active)"),
    ("C=CCN1C(=O)[C@@]2(CCC(=O)OC(C)(C)C)N=C(c3ccc(OCCCO)cc3)O[C@H]2c2ccccc21", "36.7 (active)"),
    ("CCOC(=O)C[C@H]1[C@H](OC(=O)c2ccccc2-c2ccccc2)[C@@H](NC(=O)CC(C)C)c2cc(OCCCO)ccc2N1C(=O)c1ccc2ccccc2n1", "11.9 (active)"),
    ("C=CCOC(=O)[C@@H]1[C@H]2C(=O)O[C@H](c3ccccc3)[C@H](c3ccccc3)N2[C@H](c2ccc(OCCOC(=O)[C@H]3C[C@H]4C(=O)N[C@@H](CCCCNC(C)=O)C(=O)N4[C@H]3c3cccc(OCCO)c3)cc2)[C@@]12C(=O)Nc1ccc(I)cc12", "3.68 (inactive)"),
]

Let's switch to this molecule now.
Query: Could you tell me which z-score is on file for CC(=O)n1cc(C(O)C2C=CC3C(=O)N(c4ccccc4)C(=O)C3N2Nc2ccccc2)c2ccccc21 (stereo not given) ?
Response: 20.1 (active)

---

# Test system: XIP peptide (Xip251-270)
# assay_comment: small-molecule binders of XIP peptide, primary screen, biochemical, small-molecule microarray, fluorescence 635/667 nm, 0.5 µg/mL protein (AID 1183)
# stated_conditions: small-molecule microarray binding, fluorescence 635 nm; higher = more signal
molecules and their reported composite z-score
Give the value as a plain number.

// worked examples, composite z-score included
# molecule, composite z-score
measured = [
    ("O=C1c2ccccc2[C@](Cc2ccccc2I)(C(=O)NCc2ccccc2)[C@H](c2ccc(CO)cc2)N1C1CCCCC1", 0.713),
    ("[N-]=[N+]=NCc1ccccc1C[C@@]1(C(N)=O)N=C(c2ccc(OCCCO)cc2)O[C@@H]1c1ccccc1CN=[N+]=[N-]", 0.0228),
    ("COC(=O)[C@@]1(Cc2ccccc2)[C@H]2c3cc(C(=O)N4CCCC4)n(C[C@H](O)CO)c3C[C@H]2CN1C(=O)c1ccccc1", -0.487),
    ("O=C1O[C@@H](c2ccccc2)[C@@H](c2ccccc2)N2[C@@H](c3ccc(O)cc3)[C@]3(C(=O)Nc4ccc(C#CCCO)cc43)[C@@H](C(=O)NC[C@H](O)c3ccccc3)[C@H]12", 0.478),
    ("CN1C(=O)[C@@]2(CCS(=O)(=O)c3ccccc3)N=C(c3ccc(OCCCO)cc3)O[C@H]2c2ccccc21", 0.182),
]

Let's switch to this molecule now.
Query: Could you tell me which composite z-score is on file for CC(C)C(O)C1C=CC2C(=O)N(C)C(=O)C2N1Nc1ccccc1 (centres undefined) ?
Response: 0.655

---

compounds and their reported composite z-score
# study_target: Fibroblast growth factor 2 (Homo sapiens) (UniProt P09038)
# Sequence (P09038 whole entry, looked up): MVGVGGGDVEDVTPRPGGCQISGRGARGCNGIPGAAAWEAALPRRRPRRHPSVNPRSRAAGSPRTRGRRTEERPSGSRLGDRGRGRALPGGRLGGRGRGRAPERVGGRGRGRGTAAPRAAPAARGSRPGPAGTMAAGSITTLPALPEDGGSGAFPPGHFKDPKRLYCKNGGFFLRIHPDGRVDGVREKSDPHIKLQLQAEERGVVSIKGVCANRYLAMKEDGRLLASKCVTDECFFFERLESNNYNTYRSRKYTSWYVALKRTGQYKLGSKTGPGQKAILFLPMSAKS
# assay_comment: FGF2 binders on small-molecule microarrays, primary screen, biochemical, small-molecule microarray, 635/667 nm fluorescence (AID 1133)
# stated_conditions: small-molecule microarray binding, FGF2, fluorescence 635/667; higher = more signal
Give the value as a plain number.

# compound, composite z-score
records = [
    ("CC(C)(C)OC(=O)CC[C@@]1(C(=O)O)N=C(c2ccc(OCCCO)cc2)O[C@@H]1c1ccccc1CN=[N+]=[N-]", -0.279),
]

Query: Could you tell me which composite z-score is on file for `COC(=O)C(CC#Cc1ccc2c(c1)[C@]1(C(=O)N2)[C@H](C(=O)O)[C@H]2C(=O)O[C@H](c3ccccc3)[C@H](c3ccccc3)N2[C@@H]1c1ccccc1OCCO)C(=O)OC` ?
Response: 0.838

Query: Could you tell me which composite z-score is on file for `C=C(/C=C/CNS(=O)(=O)c1ccc(C)cc1)[C@H](O)[C@H]1CCCN1S(=O)(=O)c1ccccc1[N+](=O)[O-]` ?
Response: 0.891

Query: Could you tell me which composite z-score is on file for `C[n+]1ccc(CCCO)cc1` ?
Response: 1.44

---

# study_target: Dickkopf-related protein 1 (Homo sapiens) (UniProt O94907)
# Sequence (O94907 whole entry, looked up): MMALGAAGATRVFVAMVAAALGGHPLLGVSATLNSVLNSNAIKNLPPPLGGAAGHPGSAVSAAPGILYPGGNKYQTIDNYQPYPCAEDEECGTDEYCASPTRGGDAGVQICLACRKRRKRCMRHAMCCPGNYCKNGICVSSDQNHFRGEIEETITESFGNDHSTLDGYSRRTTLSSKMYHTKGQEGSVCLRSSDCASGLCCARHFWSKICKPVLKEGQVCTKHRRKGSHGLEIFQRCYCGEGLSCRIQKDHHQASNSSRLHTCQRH
# assay_comment: DKK1 binders on small-molecule microarrays, primary screen, biochemical, small-molecule microarray, 635 nm fluorescence scan (AID 1106);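 note: score merges emission near 667 nm with signal to noise over three replicate slides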
# stated_conditions: DKK1 binding, higher = more signal
Please note: True applies when composite z-score is 0.2 or greater, and False applies otherwise.

These recorded examples may help you get a feel for the data.
# compound, study_target, cat
records = [
    ("COC(=O)[C@@]1(Cc2ccccc2)[C@H]2c3cc(C(=O)N4CCCC4)n(C[C@H](O)CO)c3C[C@H]2CN1C(=O)c1ccccc1", "Dickkopf-related protein 1 (Homo sapiens) (UniProt O94907)", "False"),
    ("CCOc1cc(C(O)C2C=CC3C(=O)N(C4CCCCC4)C(=O)C3N2Nc2ccc(OC)cc2)ccc1O (stereo not given)", "Dickkopf-related protein 1 (Homo sapiens) (UniProt O94907)", "False"),
    ("CC=CC(O)C1C=CC2C(=O)N(C)C(=O)C2N1N1CCCCC1 (stereo not given)", "Dickkopf-related protein 1 (Homo sapiens) (UniProt O94907)", "True"),
    ("C=CCOC(=O)[C@@H]1[C@H]2C(=O)O[C@H](c3ccccc3)[C@H](c3ccccc3)N2[C@H](c2ccc(OCCOC(=O)[C@H]3C[C@H]4C(=O)N[C@@H](CCCCN(C)C)C(=O)N4[C@H]3c3cccc(OCCO)c3)cc2)[C@@]12C(=O)Nc1ccc(I)cc12", "Dickkopf-related protein 1 (Homo sapiens) (UniProt O94907)", "True"),
    ("CC=CC(O)C1C=CC2C(=O)N(c3ccccc3)C(=O)C2N1Nc1ccc([N+](=O)[O-])cc1 (stereo not given)", "Dickkopf-related protein 1 (Homo sapiens) (UniProt O94907)", "False"),
    ("O=c1cccc(-c2cccc(Cl)c2)o1", "Dickkopf-related protein 1 (Homo sapiens) (UniProt O94907)", "False"),
]

Query: # bool: composite z-score of `NC(N)=NCc1cn(CCc2c[nH]c3ccccc23)nn1` >= 0.2
Response: True

---

molecules and their reported composite z-score
# study_target: Torsin-1A (Homo sapiens) (UniProt O14656)
# Sequence (O14656 whole entry, looked up): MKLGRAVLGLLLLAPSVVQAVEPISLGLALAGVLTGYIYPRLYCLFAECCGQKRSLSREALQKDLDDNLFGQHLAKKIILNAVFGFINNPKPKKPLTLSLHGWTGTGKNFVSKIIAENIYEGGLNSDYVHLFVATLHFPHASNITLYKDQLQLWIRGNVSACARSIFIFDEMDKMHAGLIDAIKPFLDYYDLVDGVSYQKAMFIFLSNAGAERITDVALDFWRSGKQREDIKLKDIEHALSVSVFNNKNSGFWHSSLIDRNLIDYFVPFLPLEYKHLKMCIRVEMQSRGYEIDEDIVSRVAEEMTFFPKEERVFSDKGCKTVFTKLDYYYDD
# assay_comment: torsin A binders from cell lysate, primary screen, small-molecule microarray, wild-type, 635/667 nm (AID 1149)
# stated_conditions: COS7 hTOR1A-WT lysate, 635 nm fluorescence, higher = more signal
Give the value as a plain number.

// worked examples, composite z-score included
# molecule, recorded_value
records = [
    ("O=c1cccc(-c2cccc(Cl)c2)o1", 0.34),
    ("CN1C2C=C(CCCO)C(C3C(=O)N(C(N)=O)C(=O)C32)C1c1cccs1 (configuration not stated)", 0.21),
    ("C=C(C(=O)CC[C@H](OC(C)=O)c1cccc(OCCO)c1)C(C)C", -0.34),
    ("COc1ccc([Si](C)(C)[C@H]2[C@H](CCn3cc([C@H](O)c4ccccc4)nn3)O[C@@]3(C(=O)N(Cc4ccc(N5CCOC5=O)cc4)c4ccccc43)[C@@H]2C)cc1", -0.995),
    ("CC(C)(C)OC(=O)CC[C@@]1(C(=O)O)N=C(c2ccc(OCCCO)cc2)O[C@@H]1c1ccccc1", 0.961),
    ("CCOC(=O)C[C@H]1[C@H](OC(=O)c2ccc(C(=O)c3ccccc3)cc2)[C@@H](NC(=O)c2ccc3ccccc3c2)c2cc(OCCCO)ccc2N1C(=O)c1ccccc1", 0.196),
    ("Cc1ccc(S[C@]2(C(=O)NC(C)C)CC(=O)N(C3Cc4ccccc4C3)[C@@H]2c2ccc(CO)cc2I)cc1", -1.49),
    ("COc1cc2c(cc1OC)CN(C(=O)[C@H]1[C@@H]3C(=O)O[C@@H](c4ccccc4)[C@@H](c4ccccc4)N3[C@@H](c3ccc(OCCO)cc3)[C@]13C(=O)Nc1ccc(C#CCCO)cc13)CC2", 0.272),
]

Query: Could you tell me which composite z-score is on file for `NCCCCCNC(=O)[C@@H]1C[C@@H]2C(=O)N[C@@H](CCCCN)C(=O)N2[C@@H]1c1cccc(OCCO)c1` ?
Response: 0.247

Query: Could you tell me which composite z-score is on file for `COC(=O)c1c(CC[C@@H](CO)NC(=O)N[C@H](Cn2cc(-c3ccccc3C)nn2)C(C)C)oc(C(C)=O)c1C(=O)OC` ?
Response: -0.123

Query: Could you tell me which composite z-score is on file for CC(C)OC(=O)CC(=O)CC(O)c1cccc(C#N)c1 (configuration not stated) ?
Response: 0.863

Query: Could you tell me which composite z-score is on file for `CCOC(=O)C[C@H]1[C@H](OC(=O)c2ccc(-c3ccccc3)cc2)[C@@H](NC(=O)C2CCCCC2)c2cc(OCCCO)ccc2N1C(=O)c1ccccc1` ?
Response: -0.0488
